- System: Staphylococcus epidermidis
- TEST SUMMARY: Antibacterial activity against Staphylococcus epidermidis ATCC 35984 after 24 hrs by broth microdilution method
- Type: functional
- CONDITION SUMMARY: RP62A
Assign MIC to each entry below.
Answers are plain numbers, in µg/mL.

Exercise: Give MIC (Staphylococcus epidermidis) of the following compound: NCC(=O)Nc1ccc(-n2nc(C(F)(F)F)cc2-c2ccc3c(c2)Nc2ccccc2S3)cc1
Solution: 4

Value sought for every listed compound: MIC.
1. NCCC(=O)Nc1ccc(-n2nc(C(F)(F)F)cc2-c2ccc3c(c2)oc2ccccc23)cc1
2. Cc1ccc(-c2cc(C(F)(F)F)nn2-c2ccc(S(N)(=O)=O)cc2)cc1 [CELECOXIB]
3. NCCCC[C@@H](N)C(=O)Nc1ccc(-n2nc(C(F)(F)F)cc2-c2ccc3c(c2)Nc2ccccc2S3)cc1

Solution:
1: 4; 2: 16; 3: 4

Value sought for every listed compound: MIC.
1. Cc1ccc(-c2cc(C(F)(F)F)nn2-c2ccc(NS(N)(=O)=O)cc2)cc1
2. O=C(N[C@H](CO)[C@H](O)c1ccc([N+](=O)[O-])cc1)C(Cl)Cl [CHLORAMPHENICOL]
3. NCCCC[C@@H](N)C(=O)Nc1ccc(-n2nc(C(F)(F)F)cc2-c2ccc3c(ccc4ccccc43)c2)cc1

Solution:
1. 4
2. 8
3. 4
